The origin of these recorded values is patent US7671061B2.

study target: hNaV1.2 (Homo sapiens)
Sequence (Q99250 whole entry): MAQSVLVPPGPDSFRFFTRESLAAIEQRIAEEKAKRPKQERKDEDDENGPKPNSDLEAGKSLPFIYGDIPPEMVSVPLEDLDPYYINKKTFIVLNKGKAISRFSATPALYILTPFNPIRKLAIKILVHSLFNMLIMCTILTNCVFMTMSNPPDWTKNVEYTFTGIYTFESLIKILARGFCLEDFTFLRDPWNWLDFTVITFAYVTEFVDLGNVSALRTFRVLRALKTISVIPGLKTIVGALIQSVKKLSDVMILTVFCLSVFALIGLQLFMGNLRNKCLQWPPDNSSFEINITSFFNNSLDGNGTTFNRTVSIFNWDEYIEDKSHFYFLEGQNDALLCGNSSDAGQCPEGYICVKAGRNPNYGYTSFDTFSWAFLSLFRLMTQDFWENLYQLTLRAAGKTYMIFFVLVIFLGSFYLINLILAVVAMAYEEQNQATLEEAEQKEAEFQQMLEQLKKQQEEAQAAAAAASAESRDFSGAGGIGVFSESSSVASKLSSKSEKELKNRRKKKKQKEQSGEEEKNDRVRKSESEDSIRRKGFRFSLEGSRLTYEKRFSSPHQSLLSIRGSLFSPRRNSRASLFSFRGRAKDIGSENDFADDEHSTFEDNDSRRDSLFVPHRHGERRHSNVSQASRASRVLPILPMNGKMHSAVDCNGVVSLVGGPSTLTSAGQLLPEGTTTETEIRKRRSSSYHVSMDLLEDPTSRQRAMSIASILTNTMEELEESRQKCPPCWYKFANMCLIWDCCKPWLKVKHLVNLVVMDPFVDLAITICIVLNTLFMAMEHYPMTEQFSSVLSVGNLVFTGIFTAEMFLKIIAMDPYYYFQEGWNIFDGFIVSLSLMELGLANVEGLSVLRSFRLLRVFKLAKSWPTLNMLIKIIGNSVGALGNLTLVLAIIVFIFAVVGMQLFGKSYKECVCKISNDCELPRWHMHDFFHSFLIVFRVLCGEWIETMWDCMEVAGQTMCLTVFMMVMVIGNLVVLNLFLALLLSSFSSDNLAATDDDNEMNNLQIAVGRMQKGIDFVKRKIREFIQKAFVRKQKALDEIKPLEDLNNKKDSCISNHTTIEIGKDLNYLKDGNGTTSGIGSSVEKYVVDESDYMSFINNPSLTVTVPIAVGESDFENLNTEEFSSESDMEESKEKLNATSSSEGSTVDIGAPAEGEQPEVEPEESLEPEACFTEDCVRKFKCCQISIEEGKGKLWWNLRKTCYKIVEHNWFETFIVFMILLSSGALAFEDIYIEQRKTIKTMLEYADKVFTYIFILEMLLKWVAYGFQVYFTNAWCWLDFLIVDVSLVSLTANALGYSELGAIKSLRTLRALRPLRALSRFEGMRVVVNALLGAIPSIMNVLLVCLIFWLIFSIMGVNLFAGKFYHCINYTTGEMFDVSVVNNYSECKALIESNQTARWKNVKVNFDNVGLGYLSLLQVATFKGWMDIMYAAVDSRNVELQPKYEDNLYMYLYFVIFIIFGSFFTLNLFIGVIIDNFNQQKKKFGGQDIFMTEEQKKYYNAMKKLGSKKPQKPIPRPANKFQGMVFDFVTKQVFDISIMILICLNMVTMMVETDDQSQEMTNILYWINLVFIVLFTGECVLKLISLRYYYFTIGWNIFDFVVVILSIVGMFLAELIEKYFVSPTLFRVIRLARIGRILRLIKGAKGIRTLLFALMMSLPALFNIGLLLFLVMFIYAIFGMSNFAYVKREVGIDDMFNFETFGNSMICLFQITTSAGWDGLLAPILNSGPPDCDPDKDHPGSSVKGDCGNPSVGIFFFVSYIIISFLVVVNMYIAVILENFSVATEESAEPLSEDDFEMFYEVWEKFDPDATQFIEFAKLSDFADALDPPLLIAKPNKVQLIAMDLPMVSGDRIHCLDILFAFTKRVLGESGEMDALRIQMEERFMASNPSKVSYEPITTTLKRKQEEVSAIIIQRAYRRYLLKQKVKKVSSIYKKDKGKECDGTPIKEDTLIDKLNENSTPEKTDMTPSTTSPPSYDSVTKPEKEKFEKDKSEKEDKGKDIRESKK
method notes: hNaV1.2 patch clamp (Qpatch) selectivity
Assay type: cell-based
test conditions: Table 1; read-out: hNaV1.2 Qpatch IC50
pIC50: −log10 of the molar value.
assay readout: pIC50

Name the recorded pIC50 of the item CCOC(=O)C1=C(c2ccccc2)NC(=S)NC1c1cc(O)ccc1Br (stereo not shown) [drawing 49] in your answer.
≤ 4.52

---

study target: hTRPV3 (Homo sapiens)
Sequence (Q8NET8 whole entry): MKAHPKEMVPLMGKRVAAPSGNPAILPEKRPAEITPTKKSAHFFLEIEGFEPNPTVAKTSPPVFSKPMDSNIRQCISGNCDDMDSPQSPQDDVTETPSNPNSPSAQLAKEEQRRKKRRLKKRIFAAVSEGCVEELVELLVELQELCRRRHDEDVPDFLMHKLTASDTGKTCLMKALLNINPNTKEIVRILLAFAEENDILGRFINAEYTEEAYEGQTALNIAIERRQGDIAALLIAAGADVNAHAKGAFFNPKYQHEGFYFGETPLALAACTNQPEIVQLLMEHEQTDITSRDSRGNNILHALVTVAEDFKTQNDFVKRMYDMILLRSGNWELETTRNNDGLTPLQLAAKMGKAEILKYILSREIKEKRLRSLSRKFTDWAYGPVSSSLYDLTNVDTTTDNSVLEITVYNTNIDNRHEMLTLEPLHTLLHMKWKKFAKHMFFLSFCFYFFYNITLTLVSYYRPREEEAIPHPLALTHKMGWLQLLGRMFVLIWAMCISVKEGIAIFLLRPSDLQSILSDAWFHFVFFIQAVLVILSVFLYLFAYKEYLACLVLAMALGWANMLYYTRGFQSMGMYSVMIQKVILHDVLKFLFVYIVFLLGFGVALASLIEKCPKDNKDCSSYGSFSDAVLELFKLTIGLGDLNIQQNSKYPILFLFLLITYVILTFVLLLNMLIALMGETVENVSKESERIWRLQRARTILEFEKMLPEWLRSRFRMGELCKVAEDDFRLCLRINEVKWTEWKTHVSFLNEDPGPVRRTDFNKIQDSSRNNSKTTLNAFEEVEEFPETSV
method notes: hTRPV3 patch clamp selectivity
test conditions: Table 2; read-out: hTRPV3 P1 inward IC50
Consider the following compounds and their measured IC50 readings.

| compound | IC50 |
| --- | --- |
| Cn1c(=O)c2c(ncn2CC(=O)Nc2nc3ccccc3s2)n(C)c1=O [Compound 239] | ≤ 10 µM |

// switching to the query compound
Name the recorded IC50 of the item CC(C)c1ccc(NC(=O)Cn2cnc3c2c(=O)n(C)c(=O)n3C)cc1 [Compound 200] in your answer.
> 10 µM
